Test system: EPHA7
Conditions: Compound Concentration (nM):1000;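 also: KINOMEscan scanMAX binding as percent activity remaining versus control; lower means stronger binding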
// values below are reported Percent Control
testReadout: Percent Control (%)

[[record]]
molecule = "CN1CCN(C(=O)c2ccc(NC(=O)Nc3ccc(N(C)c4ccnc(Nc5ccc(CS(C)(=O)=O)cc5)n4)cc3)cc2)CC1.Cl [GW830263A]"
experimentaltarget = "EPHA7"
recordednumber = 92

[[record]]
molecule = "CCS(=O)(=O)c1ccc(OC)c(Nc2ncc(-c3cccc(F)c3)o2)c1 [GW621970X]"
experimentaltarget = "EPHA7"
recordednumber = 100

[[record]]
molecule = "COc1cc(/C=N/Nc2ncnc3[nH]ncc23)ccc1O [GW578748X]"
experimentaltarget = "EPHA7"
recordednumber = 100

[[record]]
molecule = "COc1cccc(-n2ncc3c(N/N=C/c4ccncc4)ncnc32)c1 [GW784752X]"
experimentaltarget = "EPHA7"
recordednumber = 100


###

Test system: MARK4
Conditions: Compound Concentration (nM):1000
testReadout: Percent Control (%)

[[record]]
compound = "COc1cccc(-n2ncc3c(N/N=C/c4ccncc4)ncnc32)c1 [GW784752X]"
testreadout = "Percent Control"
recordednumber = 84

[[record]]
compound = "C/C(Nc1ccc(S(N)(=O)=O)cc1)=C1/C(=O)Nc2ccccc21 [GW335962X]"
testreadout = "Percent Control"
recordednumber = 87

[[record]]
compound = "CC1=C(C(=O)Nc2ccc3[nH]ncc3c2)C(c2ccc3ccccc3c2)CC(=O)N1 (centres unmarked) [GSK270822A]"
testreadout = "Percent Control"
recordednumber = 76

[[record]]
compound = "COc1cc2ncn(-c3cc(O[C@H](C)c4ccccc4Cl)c(C(N)=O)s3)c2cc1OC [GSK237701A]"
testreadout = "Percent Control"
recordednumber = 74

[[record]]
compound = "CN(C)CCNC(=O)Nc1ccc(N(C)c2ccnc(Nc3ccc(CS(C)(=O)=O)cc3)n2)cc1.Cl [GW830900A]"
testreadout = "Percent Control"
recordednumber = 100

[[record]]
compound = "O=C1Nc2ccc(C(=O)c3ccco3)cc2C1=Cc1cc(Cl)c(O)c(Cl)c1 [GW406108X]"
testreadout = "Percent Control"
recordednumber = 100

[[record]]
compound = "CCS(=O)(=O)c1ccc(OC)c(Nc2ncc(-c3cccc(F)c3)o2)c1 [GW621970X]"
testreadout = "Percent Control"
recordednumber = 92

[[record]]
compound = "COc1cc(N2CCN(C(C)C)CC2)ccc1Nc1nc(Nc2ccc(F)cc2C(=O)NC[C@@H](O)CO)c2cc[nH]c2n1 [GSK1392956A]"
testreadout = "Percent Control"
recordednumber = 100


###

Test system: RIPK2
Settings: Compound Concentration (nM):1000
// values below are reported Percent Control
testReadout: Percent Control (%)

[[record]]
compound = "COc1cccc(-c2c[nH]c3c(N/N=C/c4ccncc4)ncnc23)c1 [GW814408X]"
experimentaltarget = "RIPK2"
testreadout = "Percent Control"
unitssymbol = "%"
recordednumber = 41

[[record]]
compound = "CC(C)COC(=O)c1ccc2c(c1)/C(=C/Nc1ccc(S(N)(=O)=O)cc1)C(=O)N2 [GW416981X]"
experimentaltarget = "RIPK2"
testreadout = "Percent Control"
unitssymbol = "%"
recordednumber = 100

[[record]]
compound = "CC1=C(C(=O)Nc2ccc3[nH]ncc3c2)C(c2ccc(Cl)c(Cl)c2)CC(=O)N1 (centres unmarked) [GSK299115A]"
experimentaltarget = "RIPK2"
testreadout = "Percent Control"
unitssymbol = "%"
recordednumber = 72

[[record]]
compound = "COc1cc2ncn(-c3cc(O[C@H](C)c4ccccc4Cl)c(C(N)=O)s3)c2cc1OC [GSK237701A]"
experimentaltarget = "RIPK2"
testreadout = "Percent Control"
unitssymbol = "%"
recordednumber = 100

[[record]]
compound = "COc1cc(/C=N/Nc2ncnc3[nH]ncc23)ccc1O [GW578748X]"
experimentaltarget = "RIPK2"
testreadout = "Percent Control"
unitssymbol = "%"
recordednumber = 100

[[record]]
compound = "CCn1c(-c2nonc2N)nc2c(C#CC(C)(C)O)nc(OCCNC)cc21.Cl"
experimentaltarget = "RIPK2"
testreadout = "Percent Control"
unitssymbol = "%"
recordednumber = 100

[[record]]
compound = "CN(C)c1cc2c(Nc3ccc4c(cnn4Cc4ccccc4)c3)ncnc2cn1 [GW282974X]"
experimentaltarget = "RIPK2"
testreadout = "Percent Control"
unitssymbol = "%"
recordednumber = 27

[[record]]
compound = "NS(=O)(=O)c1ccc(N/N=C2\\C(=O)Nc3ccc(C(=O)NCCc4c[nH]cn4)cc32)cc1 [GW300660X]"
experimentaltarget = "RIPK2"
testreadout = "Percent Control"
unitssymbol = "%"
recordednumber = 100


###

System: MAK
Details: Compound Concentration (nM):1000
// values below are reported Percent Control
testReadout: Percent Control (%)

[[record]]
compound = "C[C@@H](Oc1cc(-n2cnc3ccc(OC4CCN(C)CC4)cc32)sc1C(N)=O)c1ccccc1Cl [GSK579289A]"
testreadout = "Percent Control"
recordednumber = 100

[[record]]
compound = "COC(=O)Nc1nc2ccc(Oc3ccc(NC(=O)Nc4cc(C(F)(F)F)ccc4F)cc3)cc2s1.Cl [GW693917A]"
testreadout = "Percent Control"
recordednumber = 100

[[record]]
compound = "O=C1Nc2ccc(C(=O)c3ccco3)cc2C1=Cc1cc(Cl)c(O)c(Cl)c1 [GW406108X]"
testreadout = "Percent Control"
recordednumber = 100


###

System: JNK3
Construct: gene MAPK10
Details: Compound Concentration (nM):1000
Mark 1.0 only when Percent Control stays strictly below 80%. Values equal to the cut-off are 0.0.

[[record]]
molecule = "C[C@@H](Oc1cc(-n2cnc3ccc(OC4CCN(C)CC4)cc32)sc1C(N)=O)c1ccccc1Cl [GSK579289A]"
label = 0.0

[[record]]
molecule = "Cl.c1ccc(Cc2nc3ccc(Nc4ncnc5ccccc45)cc3[nH]2)cc1 [GR269666A]"
label = 0.0

[[record]]
molecule = "CC(C)COC(=O)c1ccc2c(c1)/C(=C/Nc1ccc(S(N)(=O)=O)cc1)C(=O)N2 [GW416981X]"
label = 1.0

[[record]]
molecule = "Cc1cc(O)cc(C)c1/C=C/c1cncc(C(N)=O)c1 [GW435821X]"
label = 0.0

[[record]]
molecule = "COc1ccc(COc2ccc(Cc3cnc(N)nc3N)cc2OC)cc1 [GW632580X]"
label = 0.0

[[record]]
molecule = "NS(=O)(=O)c1ccc(N/N=C2\\C(=O)Nc3ccc(C(=O)NCc4ccncc4)cc32)cc1 [GW300657X]"
label = 1.0

[[record]]
molecule = "CN1CCN(C(=O)c2ccc(NC(=O)Nc3ccc(N(C)c4ccnc(Nc5ccc(CS(C)(=O)=O)cc5)n4)cc3)cc2)CC1.Cl [GW830263A]"
label = 1.0


###

Test system: ROS1
Settings: Compound Concentration (nM):1000
// values below are reported Percent Control
testReadout: Percent Control

[[record]]
compound = "COc1cc2ncnc(Nc3ccc4c(cnn4Cc4ccccc4)c3)c2cc1OC.Cl [GW282449A]"
experimentaltarget = "ROS1"
result = "89%"

[[record]]
compound = "CN(C)c1cc2c(Nc3ccc4c(cnn4Cc4ccccc4)c3)ncnc2cn1 [GW282974X]"
experimentaltarget = "ROS1"
result = "100%"

[[record]]
compound = "COC(=O)Nc1nc2ccc(Oc3ccc(NC(=O)Nc4cc(C(F)(F)F)ccc4F)cc3)cc2s1.Cl [GW693917A]"
experimentaltarget = "ROS1"
result = "95%"

[[record]]
compound = "COc1cc(N2CCN(C(C)C)CC2)ccc1Nc1nc(Nc2ccc(F)cc2C(=O)NC[C@@H](O)CO)c2cc[nH]c2n1 [GSK1392956A]"
experimentaltarget = "ROS1"
result = "52%"


###

// values below are reported Percent Control
Test system: STK36
Details: Compound Concentration (nM):1000
testReadout: Percent Control (%)

[[record]]
compound = "CCn1c(-c2nonc2N)nc2c(C#CC(C)(C)O)nc(OCCNC)cc21.Cl [GSK949675]"
recordednumber = 100

[[record]]
compound = "CC1=C(C(=O)Nc2ccc3[nH]ncc3c2)C(c2ccc3ccccc3c2)CC(=O)N1 (stereo not shown) [GSK270822A]"
recordednumber = 100

[[record]]
compound = "Cl.O=C(Nc1ccc(Oc2ccc3[nH]c(NC(=O)c4ccco4)nc3c2)cc1)Nc1cc(C(F)(F)F)ccc1F [GW683134A]"
recordednumber = 100

[[record]]
compound = "COc1cc(C)c(N(C)C(=O)CN(C)C)cc1Nc1nc(Nc2cccc(F)c2C(N)=O)c2cc[nH]c2n1 [GSK2219385]"
recordednumber = 100


###

// values below are reported Percent Control
System: MLCK
Construct: gene MYLK3
Settings: Compound Concentration (nM):1000
testReadout: Percent Control (%)

[[record]]
molecule = "NS(=O)(=O)c1ccc(N/N=C2\\C(=O)Nc3ccc(C(=O)NCc4ccncc4)cc32)cc1 [GW300657X]"
testreadout = "Percent Control"
recordednumber = 45

[[record]]
molecule = "COc1ccc2c(-c3ccnc(Nc4cccc(OC(F)(F)F)c4)n3)cnn2n1 [GW810372X]"
testreadout = "Percent Control"
recordednumber = 100

[[record]]
molecule = "C[C@@H](Oc1cc(-n2cnc3ccc(OC4CCN(C)CC4)cc32)sc1C(N)=O)c1ccccc1Cl [GSK579289A]"
testreadout = "Percent Control"
recordednumber = 72

[[record]]
molecule = "NS(=O)(=O)c1ccc(N/N=C2\\C(=O)Nc3ccc(C(=O)NCCc4c[nH]cn4)cc32)cc1 [GW300660X]"
testreadout = "Percent Control"
recordednumber = 100

[[record]]
molecule = "O=C(Nc1n[nH]c2nc(-c3ccc(O)cc3)c(Br)cc12)C1CC1"
testreadout = "Percent Control"
recordednumber = 67

[[record]]
molecule = "COc1ccc(COc2ccc(Cc3cnc(N)nc3N)cc2OC)cc1 [GW632580X]"
testreadout = "Percent Control"
recordednumber = 100

[[record]]
molecule = "Cl.O=C(Nc1ccc(Oc2ccc3[nH]c(NC(=O)c4ccco4)nc3c2)cc1)Nc1cc(C(F)(F)F)ccc1F [GW683134A]"
testreadout = "Percent Control"
recordednumber = 100

[[record]]
molecule = "COc1cccc(-n2ncc3c(N/N=C/c4ccncc4)ncnc32)c1 [GW784752X]"
testreadout = "Percent Control"
recordednumber = 98

[[record]]
molecule = "CCn1c(-c2nonc2N)nc2c(C#CC(C)(C)O)nc(OCCNC)cc21.Cl"
testreadout = "Percent Control"
recordednumber = 100

